Please consider the recorded IC50 for PI4KIIIB (Bos taurus (Bovine)) in what follows.

INSERT INTO measurements (entry_smiles, reported_endpoint, assay_value) VALUES
  ('Cc1ccc(-c2sc(NC(=O)CC3CCCC3)nc2C)cc1S(=O)(=O)NC1CCNCC1', 'IC50', '< 0.1 µM'),
  ('COc1ccc(-c2sc(NC3CCCCC3)nc2C)cc1S(=O)(=O)NC1CCCC1', 'IC50', '0.1 to 1 µM'),
  ('COc1ccc(-c2sc(N[C@@H](C)C3CCCCC3)nc2C)cc1S(=O)(=O)N[C@H]1CC[C@H](O)CC1', 'IC50', '< 0.1 µM'),
  ('COc1ccc(-c2sc(NC3CCCCCC3)nc2C)cc1S(=O)(=O)Nc1c(C)cccc1C', 'IC50', '< 0.1 µM'),
  ('COc1ncc(-c2sc(NC(=O)CC3CCOCC3)nc2C)cc1S(=O)(=O)Nc1cccc(O)c1', 'IC50', '< 0.1 µM');

// below: IC50 requested for another molecule
stdin: # lookup: PI4KIIIB (Bos taurus (Bovine)) IC50, key = COc1ccc(-c2sc(NCC3CCCCC3)nc2C)cc1S(=O)(=O)NC1CC1
stdout: 0.1 to 1 µM
